Cited source for all entries: ChEMBL document CHEMBL2218924

- experimentalSystem: Proto-oncogene tyrosine-protein kinase receptor Ret (Homo sapiens)
- conditionsUsed: at 10 µM
Could you label it fulfilled if measured residual activity is 80% or higher, and not fulfilled otherwise?

Example entries and their recorded answers appear below.
// query Kindly determine if residual activity recorded for Nc1ccc2ncnc(NCCc3ccc(Oc4ccccc4)cc3)c2c1 is above or exactly 80%.
// result not fulfilled

// query Then CO[C@@H]1[C@H](N(C)C(=O)c2ccccc2)C[C@H]2O[C@]1(C)n1c3ccccc3c3c4c(c5c6ccccc6n2c5c31)C(=O)NC4 ?
// result not fulfilled

***
// query Kindly determine if residual activity recorded for COc1cccc(-c2cc(=O)c3ccccc3o2)c1N is above or exactly 80%.
// result fulfilled

// query Then CN(C)c1ccc(/C=C2\C(=O)Nc3ccccc32)cc1 ?
// result not fulfilled

// query Then O=[N+]([O-])c1ccc(-c2nc(-c3ccc(F)cc3)c(-c3ccncc3)[nH]2)cc1 ?
// result not fulfilled

// query Then COc1cc2ncnc(Nc3ccc(O)c(Br)c3)c2cc1OC ?
// result not fulfilled

// query Then Nc1n[nH]c2nnc(-c3c(-c4ccccc4)nn4ccccc34)cc12 ?
// result not fulfilled

// query Then Cc1cc(Nc2nc(-c3ccccc3)nc3ccccc23)n[nH]1 ?
// result not fulfilled

// query Then Cn1nc2c3c(cccc31)C(=O)c1ccccc1-2 ?
// result not fulfilled

// query Then c1ccc2c(-c3ccncc3)c[nH]c2c1 ?
// result fulfilled

// query Then CN(C)CCCn1cc(C2=C(c3c[nH]c4ccccc34)C(=O)NC2=O)c2ccccc21 ?
// result not fulfilled

// query Then CC(C)n1cnc2/c(=N/c3cccc(Cl)c3)nc(NCCO)[nH]c21 ?
// result not fulfilled

// query Then COc1cc2ncc(-c3ccccc3)nc2cc1OC ?
// result fulfilled

// query Then Cc1cc2ncc(-c3ccccc3)nc2cc1C ?
// result fulfilled

// query Then COc1ccc(CNc2nc(N(CCO)CCO)nc3c2ncn3C(C)C)cc1 ?
// result fulfilled

// query Then Cn1cc(/C=C2\C(=O)Nc3ccc(S(N)(=O)=O)cc32)c2ccccc21 ?
// result not fulfilled

// query Then O=C(O)c1ccc2c3c1cccc3c(=O)n1c3ccccc3nc21 ?
// result not fulfilled

// query Then CC(=O)O/N=C1\C(=C2\C(=O)Nc3cc(Br)ccc32)Nc2ccccc21 ?
// result not fulfilled
